meta.source: patent US20250136606A1

Target: TRPML3 (Homo sapiens, UniProt Q8TDD5)
Construct: expressed in transfected cells
Sequence (Q8TDD5 1-553): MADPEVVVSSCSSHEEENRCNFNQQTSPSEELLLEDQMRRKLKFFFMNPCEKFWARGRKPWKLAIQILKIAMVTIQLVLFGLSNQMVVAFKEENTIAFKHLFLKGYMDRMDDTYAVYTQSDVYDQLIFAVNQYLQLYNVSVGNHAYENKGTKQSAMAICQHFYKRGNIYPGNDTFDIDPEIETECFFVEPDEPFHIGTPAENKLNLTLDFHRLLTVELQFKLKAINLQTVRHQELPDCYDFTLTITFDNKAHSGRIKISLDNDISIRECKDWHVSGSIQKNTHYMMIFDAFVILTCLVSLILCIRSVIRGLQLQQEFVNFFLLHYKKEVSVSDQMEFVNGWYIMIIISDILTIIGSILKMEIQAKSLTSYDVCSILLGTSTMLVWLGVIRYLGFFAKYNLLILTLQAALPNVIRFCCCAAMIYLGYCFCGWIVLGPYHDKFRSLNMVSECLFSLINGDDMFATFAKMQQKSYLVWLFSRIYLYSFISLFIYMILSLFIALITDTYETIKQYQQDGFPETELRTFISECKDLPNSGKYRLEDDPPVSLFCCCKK
Assay: Fluorescent TRPML3 assay (performed as for TRPML1, substituting the TRPML3 subtype)
Format: cell-based
Details: fluorescent calcium assay
pEC50: −log10 of the molar value.
// reported pEC50 for each item listed

>  <Compound>
COc1cc(-n2cc(C3CC3)c3c(N4CCN(C(=O)OC(C)(C)C)C[C@@H]4C)ncnc32)ccc1F

>  <pEC50>
6.30 to 7.00

$$$$
>  <Compound>
Cc1cncc(-n2cc(C3CC3)c3c(N4CCN(C(=O)OC(C)(C)C)[C@@H](C)C4)ncnc32)c1 (single isomer, unassigned)

>  <pEC50>
6.30 to 7.00

$$$$
>  <Compound>
C[C@@H]1CN(c2ncnc3c2c(-n2ccnc2)cn3-c2cccc(Cl)c2)CCN1C(=O)OC(C)(C)C

>  <pEC50>
6.30 to 7.00

$$$$
>  <Compound>
C[C@@H]1CN(c2ncnc3c2c(-c2ccccc2F)cn3-c2cc(C#N)ccn2)[C@@H](C)CN1C(=O)OC(C)(C)C

>  <pEC50>
> 7.00

$$$$

C[C@@H]1CN(c2ncnc3c2c(-c2cnccn2)cn3-c2cc(F)cc(Cl)c2)CCN1C(=O)OC(C)(C)C has a reported pEC50 of 6.30 to 7.00

C[C@H]1CN(C(=O)OC(C)(C)C)CCN1c1ncnc2c1c(-c1cncnc1)cn2-c1cccc(Cl)c1 has a reported pEC50 of > 7.00

C[C@H]1CN(C(=O)OC(C)(C)C)CCN1c1ncnc2c1c(N1CCOCC1)cn2C1CCCCC1 has a reported pEC50 of 6.30 to 7.00

C[C@H]1CN(C(=O)OC(C)(C)C)CCN1c1ncnc2c1c(C1CC1)cn2-c1ccc(F)c(OC(F)(F)F)c1 has a reported pEC50 of > 7.00

###

target: TRPML3 (Homo sapiens, UniProt Q8TDD5); construct: expressed in transfected cells; experiment: Fluorescent TRPML3 assay (performed as for TRPML1, substituting the TRPML3 subtype); format: cell-based; conditions: fluorescent calcium assay
Measured Endpoint: EC50

Worked cases, EC50 given:
>  <Compound>
CC(C)(C)OC(=O)N1CCN(c2ncnc3c2c(C2CC2)cn3-c2cc(C#N)ccn2)[C@@H]2C[C@@H]21 (single isomer, unassigned)

>  <EC50>
< 0.1 µM

$$$$
>  <Compound>
C[C@@H]1CN(c2nccc3c2c(C2CC2)cn3-c2cc(F)cc(F)c2)CCN1C(=O)OC(C)(C)C

>  <EC50>
< 0.1 µM

$$$$
>  <Compound>
CC(C)(C)OC(=O)N1CCN(c2ncnc3c2c(C2CC2)cn3-c2cc(F)cc(F)c2)CC12CC2

>  <EC50>
< 0.1 µM

$$$$
>  <Compound>
C[C@H]1CN(C(=O)OC(C)(C)C)CCN1c1ncnc2c1c(-c1ncccn1)cn2-c1cccc(Cl)c1

>  <EC50>
0.1 to 0.5 µM

$$$$
>  <Compound>
Cc1cncc(-n2cc(C3CC3)c3c(N4CCN(C(=O)OC(C)(C)C)[C@H](C)C4)ncnc32)c1 (single isomer, unassigned)

>  <EC50>
0.5 to 2 µM

$$$$
>  <Compound>
CCc1cncc(-n2cc(C3CC3)c3c(N4CCN(C(=O)OC(C)(C)C)CC4)ncnc32)c1

>  <EC50>
0.1 to 0.5 µM

$$$$
>  <Compound>
C[C@@H]1CN(c2cn(-c3cccc(C#N)c3)c3ncnc(N4CCN(C(=O)OC(C)(C)C)C[C@@H]4C)c23)CCO1

>  <EC50>
< 0.1 µM

$$$$
>  <Compound>
C[C@@H]1CN(c2ncnc3c2c(C2CC2)cn3-c2cc(F)ccc2F)CCN1C(=O)OC(C)(C)C

>  <EC50>
0.1 to 0.5 µM

$$$$

C[C@@H]1CN(c2ncnc3c2c(N2CCCC2)cn3-c2cccc(Cl)c2)CCN1C(=O)OC(C)(C)C has a reported EC50 of < 0.1 µM

CCOC(=O)N1CCN(c2ncnc3c2c(-c2ccccn2)cn3-c2ccc(F)c(Cl)c2)CC1 has a reported EC50 of 0.5 to 2 µM

C[C@H]1CN(C(=O)OC(C)(C)C)CCN1c1ncnc2c1c(-c1ccccn1)cn2-c1cc(F)cc(F)c1 has a reported EC50 of 0.1 to 0.5 µM
